test: Real time FT-IR curing performance in UViCure S105 at 365 and 385 nm; conditions: LED @365 nm (120 W/cm^2), UViCure S105, 20 μm thickness, under air; PI loading 1 wt % (Omnicat BL 550 4 wt %; Speedcure 938/CPTX 1/0.5 wt %)
measuredEndpoint: Polymerization rate Rp/[M0]*100 (s⁻¹)

| molecule | measuredEndpoint | assayResult |
| --- | --- | --- |
| CCc1cc(CC)c2sc3ccc(-[s+]4c5ccccc5c(=O)c5cc(CC)cc(CC)c54)cc3c(=O)c2c1 (stereo not shown) [Photoinitiator 40] | Polymerization rate Rp/[M0]*100 | 2.72 |
| CCCOc1ccc(Cl)c2c(=O)c3cc([S+](c4ccc(C)cc4)c4ccc(C(=O)c5ccccc5)cc4)ccc3sc12 (stereo not shown) [Photoinitiator 3] | Polymerization rate Rp/[M0]*100 | 2.70 |
| CCCOc1ccc(Cl)c2c1[SH](c1ccc(Oc3ccccc3)cc1)c1ccccc1C2=O (stereo not shown) [Photoinitiator 16] | Polymerization rate Rp/[M0]*100 | 2.88 |
| CCCOc1ccc(Cl)c2c(=O)c3cc(-[s+]4c5ccccc5c(=O)c5c(Cl)ccc(OCCC)c54)ccc3sc12 (stereo not shown) [Photoinitiator 5] | Polymerization rate Rp/[M0]*100 | 6.57 |
| CCCOc1ccc(Cl)c2c(=O)c3ccccc3[s+](-c3ccc(-c4ccc(OC)cc4)cc3)c12 (stereo not shown) [Photoinitiator 32] | Polymerization rate Rp/[M0]*100 | 3.73 |
| CCc1cc(CC)c2sc3ccc([S+](c4ccc(C)cc4)c4ccc(C(=O)c5ccccc5)cc4)cc3c(=O)c2c1 (stereo not shown) [Photoinitiator 4] | Polymerization rate Rp/[M0]*100 | 5.74 |
| CC(C)c1ccc2sc3ccc(-[s+]4c5ccccc5c(=O)c5cc(C(C)C)ccc54)cc3c(=O)c2c1 (stereo not shown) [Photoinitiator 1] | Polymerization rate Rp/[M0]*100 | 8.93 |
